# Test system: NCI-H460
# protocol-summary: Cytotoxicity against human H460 cells assessed as cell viability after 3 days by sulforhodamine B assay
# Assay type: functional, cell-based
# conditions-used: NCI-H460, 72 h
pIC50: −log10 of the molar value.
Please mark 1 if the recorded pIC50 is equal to or greater than 7, and 0 if it falls below.

molecule	answer-label
OCc1cn(Cc2cccc(Cl)c2)c2ccccc12	1
Cc1cccc(Cn2cc(C=O)c3ccccc32)c1	1
OCc1cn(Cc2ccc(Cl)cc2)c2ccc(Cl)cc12	0
OCc1cn(Cc2cccc(Br)c2)c2ccccc12	1
OCc1cn(Cc2ccc(Cl)cc2)c2cc(F)ccc12	0

# ---- query molecule ----
Lookup: Entry O=Cc1cn(Cc2ccc([N+](=O)[O-])cc2)c2ccccc12 : is its pIC50 no less than 7?
Found: 0

Every entry's value here was drawn from ChEMBL document CHEMBL1772965.
